Hello, the source for this data is ChEMBL document CHEMBL5126521, in case you need it.

test system: Delta-type opioid receptor (Mus musculus, UniProt P32300)
Sequence (P32300 whole entry): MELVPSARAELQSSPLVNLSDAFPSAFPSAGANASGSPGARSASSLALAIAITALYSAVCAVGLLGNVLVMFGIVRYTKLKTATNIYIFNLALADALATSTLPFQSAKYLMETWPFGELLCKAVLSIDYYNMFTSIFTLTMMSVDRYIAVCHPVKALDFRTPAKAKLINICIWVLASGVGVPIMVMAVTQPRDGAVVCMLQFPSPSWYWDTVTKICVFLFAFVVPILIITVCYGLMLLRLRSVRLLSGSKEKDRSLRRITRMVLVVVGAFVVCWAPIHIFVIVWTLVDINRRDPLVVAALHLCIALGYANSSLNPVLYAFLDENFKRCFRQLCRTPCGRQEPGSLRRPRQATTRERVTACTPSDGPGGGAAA
assay explanation: Displacement of [3H]DPDPE from mouse brain cerebellum DOP incubated for 2 hrs by liquid scintillation counter analysis
Type: tissue-based
quantity measured: pKi
Here pKi is given on a logarithmic scale as minus log10 of the concentration in mol/L.

Query: Reported pKi for N=C(N)NCCC[C@@H](NC(=O)[C@H](Cc1ccc(O)cc1)NC(=N)N)C(=O)N[C@@H](Cc1ccccc1)C(=O)NCCC(=O)O : what is it?
Result: 6.80

----------
test system: Mu-type opioid receptor (Homo sapiens, UniProt P35372)
Sequence (P35372 whole entry): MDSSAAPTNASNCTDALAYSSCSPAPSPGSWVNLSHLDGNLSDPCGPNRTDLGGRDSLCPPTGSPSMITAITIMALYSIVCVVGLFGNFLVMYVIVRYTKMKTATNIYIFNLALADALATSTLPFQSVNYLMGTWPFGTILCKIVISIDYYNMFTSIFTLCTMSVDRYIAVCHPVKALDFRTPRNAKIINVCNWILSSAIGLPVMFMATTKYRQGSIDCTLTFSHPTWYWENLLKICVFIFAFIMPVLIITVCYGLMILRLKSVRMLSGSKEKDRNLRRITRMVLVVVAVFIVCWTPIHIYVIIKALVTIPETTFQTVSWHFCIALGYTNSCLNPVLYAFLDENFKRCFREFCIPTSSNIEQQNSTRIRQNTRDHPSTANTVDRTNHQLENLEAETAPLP
assay explanation: Agonist activity at human MOP stably expressed in CHO-K1 cells assessed as inhibition of forskolin-induced cAMP accumulation
Type: functional, cell-based
quantity measured: EC50

Query: What value of EC50 has been reported for the following compound? COC(=O)[C@@H]1C[C@H](OC(=O)c2ccc(CO)cc2)C(=O)[C@H]2[C@@]1(C)CC[C@H]1C(=O)O[C@H](c3ccoc3)C[C@]21C
Result: 0.03 nM

----------
Here, each record is paired with measured IC50 data.
test system: Delta-type opioid receptor (Rattus norvegicus, UniProt P33533)
Sequence (P33533 whole entry): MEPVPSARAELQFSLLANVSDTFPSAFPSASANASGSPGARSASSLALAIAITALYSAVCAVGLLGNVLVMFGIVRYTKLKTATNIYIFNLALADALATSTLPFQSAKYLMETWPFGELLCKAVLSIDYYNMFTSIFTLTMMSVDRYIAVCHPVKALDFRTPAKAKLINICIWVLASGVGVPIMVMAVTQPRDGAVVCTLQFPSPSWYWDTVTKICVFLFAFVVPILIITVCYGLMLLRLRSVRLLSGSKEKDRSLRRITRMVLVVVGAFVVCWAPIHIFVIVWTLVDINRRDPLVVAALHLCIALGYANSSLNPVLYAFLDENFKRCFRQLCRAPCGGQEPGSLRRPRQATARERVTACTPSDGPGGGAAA
assay explanation: Inhibition of Wistar rat brain membrane DOP
Dear colleague, please return just the value in µM, with no unit written.

# count of solved cases: 2
[
  {
    "structure as smiles": "Cc1cc(O)cc(C)c1C[C@H](N)C(=O)N[C@@H]1CCCCNC(=O)C[C@@H](C(N)=O)NC(=O)[C@H](c2ccccc2)NC(=O)[C@H](c2ccccc2)NC1=O",
    "test system": "Delta-type opioid receptor (Rattus norvegicus, UniProt P33533)",
    "IC50 [µM]": 0.4
  },
  {
    "structure as smiles": "Cc1cccc([C@@H]2NC(=O)[C@H](c3ccccc3)NC(=O)[C@H](NC(=O)[C@@H](N)Cc3c(C)cc(O)cc3C)CCCCNC(=O)C[C@@H](C(N)=O)NC2=O)c1",
    "test system": "Delta-type opioid receptor (Rattus norvegicus, UniProt P33533)",
    "IC50 [µM]": 0.0186
  }
]

Query: Record lookup: for Delta-type opioid receptor (Rattus norvegicus, UniProt P33533), what IC50 belongs to Cc1cccc([C@@H]2NC(=O)[C@H](NC(=O)[C@@H](N)Cc3c(C)cc(O)cc3C)CCCCNC(=O)C[C@@H](C(N)=O)NC(=O)[C@H](c3ccccc3)NC2=O)c1 ?
Result: 0.116

----------
Measured Ki accompanies every entry in the list below.
test system: Delta-type opioid receptor (Homo sapiens)
Sequence (P41143 whole entry): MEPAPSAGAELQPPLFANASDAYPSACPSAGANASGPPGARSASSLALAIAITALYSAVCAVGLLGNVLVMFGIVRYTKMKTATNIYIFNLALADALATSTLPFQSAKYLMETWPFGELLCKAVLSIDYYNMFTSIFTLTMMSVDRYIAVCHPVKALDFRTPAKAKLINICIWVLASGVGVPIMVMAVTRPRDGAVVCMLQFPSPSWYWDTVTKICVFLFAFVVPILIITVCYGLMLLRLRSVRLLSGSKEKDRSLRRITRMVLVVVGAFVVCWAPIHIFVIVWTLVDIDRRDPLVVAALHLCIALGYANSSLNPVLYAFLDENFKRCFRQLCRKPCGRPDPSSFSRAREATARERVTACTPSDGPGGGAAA
assay explanation: Displacement of [3H]DPDPE from DOP (unknown origin) stably expressed in CHO cell membrane incubated for 90 mins by scintillation counter analysis
Assay type: cell membranes

Record excerpt, results attached:
[
  {
    "structure as smiles": "C[C@@H]1NC(=O)[C@H](Cc2ccccc2)NC(=O)[C@H]2CCCN2C(=O)[C@H](Cc2ccccc2)NC1=O",
    "result value": "> 10 µM"
  },
  {
    "structure as smiles": "C[C@@H]1NC(=O)[C@H]2CCCN2C(=O)[C@H](Cc2ccccc2)NC(=O)[C@H](Cc2c[nH]c3ccccc23)NC1=O",
    "result value": "> 10 µM"
  },
  {
    "structure as smiles": "C[C@@H]1NC(=O)[C@H](Cc2c[nH]c3ccccc23)NC(=O)[C@H](Cc2ccccc2)NC(=O)[C@H]2CCCN2C1=O",
    "result value": "8.68 µM"
  }
]

The record that follows has no Ki shown yet.
Query: Given the entry C[C@@H]1C(=O)N[C@@H](Cc2ccccc2)C(=O)N[C@@H](Cc2c[nH]c3ccccc23)C(=O)N[C@@H](Cc2ccccc2)C(=O)N1C , report its measured Ki.
Result: 1.37 µM
